The measured values listed here are drawn from PubChem BioAssay (Tox21).

biological target: Retinoic acid receptor RXR-alpha (Homo sapiens); test: qHTS assay to identify small molecule agonists of the RXR signaling pathway (AID 1159527); details: HEK293T RXRa-UAS-bla, beta-lactamase ratio, 16 h; series mostly up to 76.8 µM; note: nearly all actives have a fitted effect of over 35% in size
Records with an inconclusive call do not appear. Activity calls are given as the source filed them. Calls come from the whole dose curve.
Classes used: Y = active, N = inactive

>>> classification("NC1=NC(=O)C(c2ccccc2)O1 (centres undefined)")
"N"
>>> classification("Cc1cccc(C#N)c1")
"N"
>>> classification("CCSC(=O)N(CC)C1CCCCC1")
"N"
>>> classification("ClCC(Cl)(Cl)Cl")
"N"
>>> classification("O=C1OC(c2ccc(O)c(S(=O)(=O)O)c2)(c2ccc(O)c(S(=O)(=O)O)c2)c2c(Br)c(Br)c(Br)c(Br)c21")
"N"
>>> classification("CCCCCCI")
"N"
>>> classification("COC(=O)C1=CCCN(C)C1")
"N"
>>> classification("CCOC(=O)C1(c2ccccc2)CCN(CCc2ccc(N)cc2)CC1")
"N"
>>> classification("CC1COC2(c3ccccc3Cl)c3cc(Cl)ccc3NC(=O)CN12 (centres undefined)")
"N"
>>> classification("Cc1ncc2n1-c1ccc(Cl)cc1C(c1ccccc1F)=NC2")
"N"
>>> classification("CCC1(c2ccccc2)C(=O)NC(=O)NC1=O")
"N"
>>> classification("COc1ccc(C(=O)N2CCCC2=O)cc1")
"N"
>>> classification("Clc1cccc(N2CCNCC2)c1")
"N"
>>> classification("CNC(=O)Oc1ccccc1C1OCCO1")
"N"
>>> classification("CCN(CC)CCOC(=O)C(C)(c1ccccc1)c1ccccc1")
"N"
>>> classification("CNNC")
"N"
>>> classification("C1CCC(C2CCCCC2)CC1")
"Y"
>>> classification("CCN(CC)C(C)C(=O)c1ccccc1 (centres undefined)")
"N"
>>> classification("CNC(=O)Oc1c(C(C)(C)C)cc(C)cc1C(C)(C)C")
"N"
>>> classification("CN/C(=N\\[N+](=O)[O-])NCC1CCOC1 (centres undefined)")
"N"
>>> classification("ClC(Cl)C(Cl)Cl")
"N"
>>> classification("O=C(O)C(Br)CBr (centres undefined)")
"Y"
>>> classification("Cc1cc(C)c(C(=O)P(=O)(C(=O)c2c(C)cc(C)cc2C)c2ccccc2)c(C)c1")
"N"
>>> classification("COC(=O)COc1ccc(Cl)cc1Cl")
"N"
>>> classification("CCCCP(CCCC)CCCC")
"N"
>>> classification("ClC(Cl)Br")
"N"
>>> classification("O=C(NCO)NCO")
"N"
>>> classification("O=NN1CCN(N=O)CC1")
"N"
>>> classification("COC(=O)c1ccccc1S(=O)(=O)NC(=O)Nc1nc(C)cc(C)n1")
"N"
>>> classification("CN(C)CCc1ccc(O)cc1")
"N"
>>> classification("C[C@]12CC[C@H]3[C@@H](CC=C4C[C@@H](O)CC[C@@]43C)[C@@H]1CC[C@@H]2O")
"N"
>>> classification("COc1cc(OC)nc(NC(=O)NS(=O)(=O)c2ncccc2OCC(F)(F)F)n1")
"N"
>>> classification("Cc1ncc(CNC(=O)N(CCCl)N=O)c(N)n1")
"N"
>>> classification("CC(C)CC(N(C)C)C1(c2ccc(Cl)cc2)CCC1 (centres undefined)")
"N"
>>> classification("COC(=O)c1ccccc1S(=O)(=O)NC(=O)N(C)c1nc(C)nc(OC)n1")
"N"
>>> classification("CC(C)[N+](=O)[O-]")
"N"
>>> classification("O=C1OC(CCN2CCCCC2)OC1(c1ccccc1)c1ccccc1 (centres undefined)")
"N"
>>> classification("CC(C)COP(=O)(OCC(C)C)OCC(C)C")
"N"
>>> classification("O=C(O)c1cccc(Cl)c1")
"N"
>>> classification("CCC(C)n1c(=O)[nH]c(C)c(Br)c1=O (centres undefined)")
"N"
>>> classification("O=C(O)c1ccc2[nH]cc(CCCCN3CC=C(c4ccccc4)CC3)c2c1")
"N"
>>> classification("Cc1ccccc1CO[C@@H]1C[C@@]2(C(C)C)CC[C@]1(C)O2")
"N"
>>> classification("OC(Cn1cncn1)(c1ccc(F)cc1)c1ccccc1F (centres undefined)")
"N"
>>> classification("CC(C)NCC(O)c1ccc(N)c(C#N)c1 (centres undefined)")
"N"
>>> classification("c1ccc(N2CCNCC2)cc1")
"N"
>>> classification("C[C@@H]1CN(C2CCC(C#N)(c3ccc(F)cc3)CC2)CC[C@]1(C(=O)O)c1ccccc1 (some centres undefined)")
"N"
>>> classification("C(CCOCC1CO1)COCC1CO1 (centres undefined)")
"N"
>>> classification("COC(=O)C(c1ccccc1)C1CCCCN1 (centres undefined)")
"N"
>>> classification("CCCCc1c(C)nc(NCC)[nH]c1=O")
"N"
